Give IC50 for every item shown.
study_target: human full length PIK3KA Wild-type (p110α/p85α complex) (Homo sapiens, UniProt P42336)
Construct: Recombinant, catalytically active human full length PIK3KA Wild-type and H1047R mutant were purchased as 1:1 complex; 6xHis (N); purchased EMD Millipore Sigma 14-602M
assay_protocol: PI3K-alpha kinase (PIK3CA) biochemical activity, wild-type, ADP-Glo
applied_conditions: PI3K-α (PIK3CA) biochemical, Soy PI lipid substrate

Qu. Item `Cc1cc([C@@H](C)Nc2ccc(Br)nc2C(=O)O)c2oc(-c3cccc(C#N)c3)c(C)c(=O)c2c1` : provide IC50
Ans. < 0.5 µM

Qu. Item `Cc1cc([C@@H](C)Nc2ccc(C(F)(F)F)cc2C(=O)O)c2oc(-c3ccccc3)cc(=O)c2c1` : provide IC50
Ans. 5 to 10 µM

Qu. Item `Cc1cc([C@@H](C)Nc2ccccc2C(=O)O)c2oc(-c3ccccc3)c(C(F)(F)F)c(=O)c2c1` : provide IC50
Ans. 1 to 5 µM

Qu. Item `C[C@@H](Nc1ccccc1C(=O)O)c1cc(F)cc2c(=O)cc(-c3cccc(C(F)F)c3)oc12` : provide IC50
Ans. 5 to 10 µM

Qu. Item `Cc1cc([C@@H](C)Nc2ncccc2C(=O)O)c2oc(-c3ccccc3)c(C)c(=O)c2c1` : provide IC50
Ans. 1 to 5 µM

Qu. Item `Cc1c(-c2ccc(F)c(F)c2)oc2c([C@@H](C)Nc3ccc(Cl)nc3C(=O)O)cc(C(F)(F)F)cc2c1=O` : provide IC50
Ans. 1 to 5 µM

Qu. Item Cc1cc(C(C)Nc2ccccc2C(=O)O)c2oc(-c3ccc(C4(C#N)CC4)cc3)cc(=O)c2c1 (single isomer, unassigned; isomer 2) [Example 53] : provide IC50
Ans. 1 to 5 µM

Qu. Item Cc1cc(C(C)Nc2cccc(F)c2C(=O)O)c2oc(-c3ccccc3F)c(C)c(=O)c2c1 (single isomer, unassigned; isomer 2) [Example 104] : provide IC50
Ans. > 10 µM

Qu. Item Cc1cc(C(C)Nc2ccccc2C(=O)O)c2oc(-c3ccc(C(=O)N(C)C)cc3)cc(=O)c2c1 (centres unmarked) [Example 8] : provide IC50
Ans. > 10 µM

Qu. Item Cc1cc([C@@H](C)Nc2ccc(C#N)nc2C(=O)O)c2oc(-c3ccccc3)c(C)c(=O)c2c1 (single isomer, unassigned; isomer 1) [Example 159] : provide IC50
Ans. 0.5 to 1 µM

Qu. Item `Cc1cc([C@@H](C)Nc2ccccc2C(=O)O)c2oc(-c3ccc(C#N)cc3F)cc(=O)c2c1` : provide IC50
Ans. 1 to 5 µM

Qu. Item Cc1cc(C(C)Nc2cccc(F)c2C(=O)O)c2oc(-c3ccccc3F)c(C)c(=O)c2c1 (centres unmarked) [Example 94] : provide IC50
Ans. 1 to 5 µM

Qu. Item `Cc1cc([C@@H](C)Nc2ccccc2C(=O)O)c2oc(-c3cccc(C(F)F)c3)cc(=O)c2c1` : provide IC50
Ans. 1 to 5 µM

Qu. Item Cc1cc(C(C)Nc2cccc(F)c2C(=O)O)c2oc(-c3cccc(F)c3)c(C)c(=O)c2c1 (single isomer, unassigned; isomer 1) [Example 105] : provide IC50
Ans. 1 to 5 µM
